# Test system: U2OS
# experiment: Here: values are normalized to the positive (DMSO; basel flux = defined as 100% suppression) and negative (250nM Torin1; mTOR inhibitor; maximal inducer of autophagy defined as 0% suppression) control compounds and represented as % of ER-phagy suppression. […] The impact of autophagy induction on cells is complex and depends on the affected target. […] Of note, treatment concentrations may be sub-optimal for specific compounds, leading to false negative annotations.
# Type: functional, Homo sapiens
# details: Compound Concentration 1 uM, Timepoint 60 hours, Culturing Media DMEM, 1 % Penicillin/Streptomycin, 10% Fetal bovin serum Add-On: blasticidin, Screening Media Control DMEM, 10% Fetal bovin serum Add-On: 1 µg/ml Doxycyclin, Screening Media Samples DMEM, 10% Fetal bovin serum Add-On: 1 µg/ml Doxycyclin 250nM Torin1
reported property: ER-phagy suppression (%)
Expressed in %, but write only the number.

Just so you know, measured ER-phagy suppression for CN(C)C/C=C/C(=O)Nc1cc2c(Nc3ccc(F)c(Cl)c3)ncnc2cc1O[C@H]1CCOC1 came out at 26.9133

Just so you know, measured ER-phagy suppression for COc1cc(Nc2nccc(-c3cnn4nc(OC)ccc34)n2)cc(C(F)(F)F)c1 came out at 17.1827

Just so you know, measured ER-phagy suppression for CCc1cncnc1N1CCN(Cc2nc3cc(C(F)(F)F)ccc3[nH]2)CC1 came out at -35.5971

Just so you know, measured ER-phagy suppression for CN(c1ncccc1CNc1nc(Nc2ccc3c(c2)CC(=O)N3)ncc1C(F)(F)F)S(C)(=O)=O.O=S(=O)(O)c1ccccc1 came out at 0.1589

Just so you know, measured ER-phagy suppression for CC(C)C(=O)Nc1n[nH]c2cc(-c3cccc(NS(=O)(=O)C4CC4)c3)ccc12 came out at -14.0127
